Collected abundance fitness values appear next to each entry.
B1: Poly(rC)-binding protein 1, residues 278 to 350; numbered along this chain, Q15365 (parent)
chain: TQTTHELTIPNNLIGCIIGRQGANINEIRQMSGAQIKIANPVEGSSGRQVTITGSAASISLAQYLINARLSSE

- Variants of: B1
- assay comment: abundance fitness (aPCA) (normalised: wild type 0, dead -1); higher = more abundant; growth selection in yeast, the domain comes from the species named
- test settings: Homo sapiens
Field format: numeric only.

In the examples that follow, each entry is paired with its recorded abundance fitness.
- variant code: "G33S"
  reported measurement: -0.382
- variant code: "L13Y"
  reported measurement: -0.07

Request: Tell me the measured abundance fitness of S72N , please.
Response: 0.161

Request: Tell me the measured abundance fitness of S60F , please.
Response: -0.102
